EXPERIMENTAL_TARGET: Interleukin-23 receptor (Homo sapiens)
Sequence (Q5VWK5 whole entry): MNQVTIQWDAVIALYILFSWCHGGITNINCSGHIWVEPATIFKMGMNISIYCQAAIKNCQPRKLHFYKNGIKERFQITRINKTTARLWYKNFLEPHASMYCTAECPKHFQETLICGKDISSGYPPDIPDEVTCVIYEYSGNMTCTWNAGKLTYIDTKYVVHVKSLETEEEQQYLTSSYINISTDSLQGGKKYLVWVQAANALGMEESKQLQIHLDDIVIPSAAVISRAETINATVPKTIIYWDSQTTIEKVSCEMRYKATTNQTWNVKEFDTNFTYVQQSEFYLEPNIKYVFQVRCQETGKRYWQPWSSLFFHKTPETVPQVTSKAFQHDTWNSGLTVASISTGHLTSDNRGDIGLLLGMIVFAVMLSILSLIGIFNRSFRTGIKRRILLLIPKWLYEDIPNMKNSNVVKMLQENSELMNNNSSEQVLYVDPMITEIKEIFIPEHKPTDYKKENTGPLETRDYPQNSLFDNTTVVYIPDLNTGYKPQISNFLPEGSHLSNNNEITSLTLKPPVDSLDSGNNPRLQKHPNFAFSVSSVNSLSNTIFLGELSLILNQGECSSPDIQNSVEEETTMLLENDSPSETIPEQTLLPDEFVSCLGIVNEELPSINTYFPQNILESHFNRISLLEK
ASSAY_PROCEDURE: Inhibition of interleukin-23 binding to human interleukin-23 receptor incubated for 2 hrs by competitive binding ELISA
*1 amine or outer side, *2 acyl side, *3 side chain or, on linkers, in order; H or OH if unused. Where a SMILES comes first, the peptide text is derived from it. Bridges are numbered along the chain shown (N, C = ends). [ ]: non-standard residue; d: D form. Abu(4-yl) = O=C([C@H](CC[*:3])N[*:1])[*:2]; Pen = CC(C)(S)[C@H](N)C(=O)O; hLeu = CC(C)CC[C@H](N)C(=O)O
# key: entry, value: IC50

{"columns": ["MOLECULE", "EXPERIMENTAL_TARGET", "IC50"],
 "data": [
  ["COc1ccc(C[C@H](NC(=O)[C@@H](NC(=O)[C@H](CCC(N)=O)NC(=O)[C@H](Cc2c[nH]c3ccccc23)NC(=O)[C@@H](NC(=O)[C@H](CCC(N)=O)NC(=O)[C@@H](NC(=O)Cc2ccc(F)cc2)C(C)(C)S)[C@@H](C)O)C(C)(C)S)C(=O)N[C@@H](Cc2ccc3ccccc3c2)C(=O)N[C@@](C)(CCCCN)C(=O)N[C@@H](CCCCNC(C)=O)C(=O)N[C@@H](CC(N)=O)C(=O)NCC(N)=O)cc1", "Interleukin-23 receptor (Homo sapiens)", "25 to 100 nM"]
]}

Qu. Provide IC50, system Interleukin-23 receptor (Homo sapiens), entry CC(=O)N[C@H]1CCSC(C)(C)[C@@H](C(=O)N[C@@H](Cc2ccc(O)cc2)C(=O)N[C@@H](Cc2c[nH]c3ccccc23)C(=O)N[C@@H](CCC(C)C)C(=O)N[C@@H](CCC(=O)O)C(=O)N[C@@H](CC(N)=O)C(=O)NCC(N)=O)NC(=O)[C@H](CCC(N)=O)NC(=O)[C@H](Cc2c[nH]c3ccccc23)NC(=O)[C@H]([C@@H](C)O)NC(=O)[C@H](CCC(N)=O)NC1=O (Ac-[Abu(4-yl)]QTWQ[Pen]YW[hLeu]ENG-NH2; thioether 1-6)
Ans. > 1000 nM
